- target: bdSUMO-MBP fusion protein

protein: SUMOstar protease (protein) LVPELNEKDDDQVQKALASRENTQLMNRDNIEITVRDFKTLAPRRWLNSGIISFFMKYIEKSTPNTVAFNSFFYTNLSERGYQGVRRWMKRKKTQIDKLDKIFTPINLNQSHWALGIIDLKKKTIGYVDSLSNGPNAMSFAILTDLQKYVMEESKHTIGEDFDLIHLDCPQQPNGYDCGIYVCMNTLYGSADAPLDFDYKDAIRMRRFIAHLILTDALK
cleavage of the SUMO fusion protein: 100 % cleavage
